Data origin, for the record: ChEMBL document CHEMBL3621115

# experimentalSystem: Tyrosine-protein kinase receptor UFO (Homo sapiens, UniProt P30530)
# Sequence (P30530 whole entry): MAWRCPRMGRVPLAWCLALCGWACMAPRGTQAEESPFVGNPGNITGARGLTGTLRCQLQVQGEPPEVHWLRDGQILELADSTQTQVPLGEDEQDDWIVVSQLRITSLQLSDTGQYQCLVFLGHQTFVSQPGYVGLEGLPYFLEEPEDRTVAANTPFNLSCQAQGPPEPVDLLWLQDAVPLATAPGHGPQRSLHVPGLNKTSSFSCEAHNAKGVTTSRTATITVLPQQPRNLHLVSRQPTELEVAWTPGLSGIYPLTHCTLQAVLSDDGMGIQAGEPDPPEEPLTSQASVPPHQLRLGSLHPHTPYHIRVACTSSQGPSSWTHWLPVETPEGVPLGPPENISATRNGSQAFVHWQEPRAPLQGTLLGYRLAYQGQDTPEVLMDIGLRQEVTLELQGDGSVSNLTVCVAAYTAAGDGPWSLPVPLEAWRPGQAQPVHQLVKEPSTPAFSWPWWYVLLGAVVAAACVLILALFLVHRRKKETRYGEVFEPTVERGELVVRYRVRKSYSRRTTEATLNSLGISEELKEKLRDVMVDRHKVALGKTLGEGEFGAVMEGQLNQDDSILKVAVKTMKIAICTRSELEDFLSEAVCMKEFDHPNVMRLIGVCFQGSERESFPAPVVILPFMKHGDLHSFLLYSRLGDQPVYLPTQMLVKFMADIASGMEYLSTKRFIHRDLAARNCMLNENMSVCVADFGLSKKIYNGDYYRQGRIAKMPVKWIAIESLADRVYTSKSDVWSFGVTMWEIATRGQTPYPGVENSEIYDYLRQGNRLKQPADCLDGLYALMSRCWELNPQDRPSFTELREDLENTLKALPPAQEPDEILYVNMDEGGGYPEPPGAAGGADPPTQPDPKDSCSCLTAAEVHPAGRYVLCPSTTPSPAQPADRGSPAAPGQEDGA
# assayDetails: Inhibition of human recombinant Axl
assayReadout: IC50

[in] Supply measured IC50 of `CN(C)CCCNC(=O)c1csc2nc(-c3ccc(NC(=O)Nc4cc(C(C)(C)C)on4)cc3)cn12` in your reply.
[out] > 10 µM

###

# experimentalSystem: Vascular endothelial growth factor receptor 2 (Homo sapiens, UniProt P35968)
# Sequence (P35968 whole entry): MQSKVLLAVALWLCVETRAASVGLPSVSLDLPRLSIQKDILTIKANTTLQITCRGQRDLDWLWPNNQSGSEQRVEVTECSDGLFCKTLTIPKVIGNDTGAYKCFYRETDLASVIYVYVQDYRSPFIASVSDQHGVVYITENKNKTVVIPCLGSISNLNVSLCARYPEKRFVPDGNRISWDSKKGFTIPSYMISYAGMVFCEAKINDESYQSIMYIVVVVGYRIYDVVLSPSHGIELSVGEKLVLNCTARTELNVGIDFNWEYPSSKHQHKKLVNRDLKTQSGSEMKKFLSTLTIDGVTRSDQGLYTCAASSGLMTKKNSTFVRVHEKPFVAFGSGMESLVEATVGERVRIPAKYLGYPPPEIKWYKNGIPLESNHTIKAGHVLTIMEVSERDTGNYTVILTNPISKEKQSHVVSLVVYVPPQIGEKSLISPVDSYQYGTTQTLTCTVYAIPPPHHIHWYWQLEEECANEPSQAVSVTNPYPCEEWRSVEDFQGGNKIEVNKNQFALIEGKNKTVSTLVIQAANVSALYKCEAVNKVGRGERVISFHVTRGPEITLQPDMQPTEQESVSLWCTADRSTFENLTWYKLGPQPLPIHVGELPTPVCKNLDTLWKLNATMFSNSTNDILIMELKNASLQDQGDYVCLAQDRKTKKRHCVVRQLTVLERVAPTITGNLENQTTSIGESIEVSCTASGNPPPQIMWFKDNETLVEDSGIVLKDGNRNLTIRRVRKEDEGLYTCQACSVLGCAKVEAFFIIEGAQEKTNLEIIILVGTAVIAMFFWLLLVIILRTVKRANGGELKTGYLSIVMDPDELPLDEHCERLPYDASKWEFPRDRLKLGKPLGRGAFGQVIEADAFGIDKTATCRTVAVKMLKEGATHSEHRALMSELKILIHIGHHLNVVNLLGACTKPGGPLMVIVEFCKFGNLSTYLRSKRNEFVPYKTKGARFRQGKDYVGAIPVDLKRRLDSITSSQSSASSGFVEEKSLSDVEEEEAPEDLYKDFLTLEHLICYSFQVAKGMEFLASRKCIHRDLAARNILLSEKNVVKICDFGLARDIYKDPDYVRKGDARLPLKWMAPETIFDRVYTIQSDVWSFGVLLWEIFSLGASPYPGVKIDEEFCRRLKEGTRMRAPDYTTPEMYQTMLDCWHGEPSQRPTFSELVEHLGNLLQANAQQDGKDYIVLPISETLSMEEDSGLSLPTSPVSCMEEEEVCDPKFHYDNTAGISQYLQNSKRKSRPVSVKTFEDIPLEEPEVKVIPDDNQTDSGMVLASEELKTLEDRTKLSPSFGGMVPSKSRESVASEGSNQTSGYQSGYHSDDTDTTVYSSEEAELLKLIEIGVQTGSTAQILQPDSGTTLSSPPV
# assayDetails: Inhibition of human recombinant KDR
assayReadout: pIC50
Notebook: values listed as pIC50 are -log10 of the concentration (mol/L).

[in] Give pIC50 for `CN(C)CCCNC(=O)c1csc2nc(-c3ccc(NC(=O)Nc4cc(C(C)(C)C)on4)cc3)cn12`
[out] 5.61

###

# assayDetails: Cytotoxicity against human Calu6 cells assessed as cell viability after 72 hrs by MTT assay
# Type: functional, cell-based
# experimentalContext: Calu-6, 72 h
assayReadout: IC50

[in] Supply reported IC50 belonging to this compound: `CN(C)CCCNC(=O)c1csc2nc(-c3ccc(NC(=O)Nc4cc(C(C)(C)C)on4)cc3)cn12`
[out] 10 µM
